System: LNCaP
PROCEDURE TEXT: Cell growth inhibition assay, prostate cancer cell line LNCaP (medium with 10 ng/mL IL-6)
Format: cell-based
TEST CONDITIONS: Homo sapiens, medium supplemented with 10 ng/mL of IL-6, 10,000 cells/well
RESULT TYPE: IC50 (µM)

Solved entries:
compound_smiles=CNc1ccc(-c2cccc(NC(=O)c3cc4ccc(NS(C)(=O)=O)cc4[nH]3)c2)c(C(F)(F)F)c1 value_reported=8
compound_smiles=COc1cc(OC(F)(F)F)cc(C(C)(C)c2cc(Br)cc(NC(=O)c3cc4cc(NS(C)(=O)=O)cnc4s3)c2)c1 value_reported=0.25
compound_smiles=COc1cc(OC(F)(F)F)cc(C(C)(C)c2cc(NC(=O)c3cc4cc(NS(C)(=O)=O)ccc4s3)cc(Cl)n2)c1 value_reported=0.05

a: CS(=O)(=O)Nc1ccc2sc(C(=O)Nc3cccc(C4(c5ccc(F)cc5)CC4)c3)cc2c1
b: CS(=O)(=O)Nc1ccc2cc(C(=O)Nc3cccc(-c4ccc([N+](=O)[O-])cc4C(F)(F)F)c3)[nH]c2c1
Response body: label of entry with the larger IC50; valid values a , b . // output: label of the selected item b
(b: 3.3 µM, a: 0.5 µM)

P: Cn1ccc(C(C)(C)c2cc(Cl)cc(NC(=O)c3cc4cc(NS(C)(=O)=O)ccc4s3)c2)c1
Q: CC(C)Oc1cc(OC(F)(F)F)cc(C2(c3cc(Cl)cc(NC(=O)c4cc5cc(NS(C)(=O)=O)ccc5s4)c3)CC2)c1
R: CN1CCN(Cc2cccc(C(C)(C)c3cc(Br)cc(NC(=O)c4cc5cc(NS(C)(=O)=O)ccc5s4)c3)c2)CC1
Write the entries in order, lowest recorded IC50 first. Output the labels ranked as instructed. Q, P, R
(Q: 0.034 µM, P: 0.096 µM, R: 5.6 µM)

P: CC(C)(c1cc(Br)cc(NC(=O)c2cc3cc(NS(C)(=O)=O)ccc3s2)c1)c1cccc(OCC(N)=O)c1
Q: CS(=O)(=O)Nc1ccc2sc(C(=O)Nc3cc(Cl)cc(Oc4ccc(C#N)cc4)c3)cc2c1
Response body: label of entry with the larger IC50; valid values P , Q . // output: label of the selected item P
